Assay: In vivo brain permeability (plasma and cerebrospinal fluid PK)
Conditions: mouse; Cerebrospinal fluid PK, CD1 mice, PO 10 mg/kg
measurement type: AUC(0-inf) (ng·h/mL)

[[record]]
compound = "O=C1C(Cc2ccc(Cl)c(F)c2)CCCN1c1nc2c([nH]1)COc1cnccc1-2 (stereo not shown)"
measurement_type = "AUC(0-inf)"
obs_value = 6900


---

Assay: Liver microsomal stability in vitro
Format: in vitro ADME
Conditions: liver microsomes, NADPH, 37 °C, 0-45 min
Readings of half-life for the listed molecules
measurement type: half-life (min)

[[record]]
molecule = "O=C1C(Cc2cc(F)c(Cl)c(F)c2)CCN1c1nc2ccc3cnccc3c2[nH]1 (centres unmarked)"
obs_value = 28.9

[[record]]
molecule = "O=C(CCc1ccc(Cl)c(F)c1)Nc1nc2c([nH]1)COc1cnccc1-2"
obs_value = 37.4

[[record]]
molecule = "O=C(CCc1cnc(Cl)c(F)c1)Nc1nc2ccc3cnccc3c2[nH]1"
obs_value = 21.1

[[record]]
molecule = "O=C(CCc1ccc(Cl)c(F)c1)Nc1nc2ccc3cnccc3c2[nH]1"
obs_value = 19.7

[[record]]
molecule = "O=C1C(Cc2ccc(Cl)c(F)c2)CCCN1c1nc2c([nH]1)COc1cnccc1-2 (centres unmarked)"
obs_value = 26.1

